# assay_overview: primary screen for suppressors of beta-catenin knockout HCT116 cell growth, colon tumor, human (AID 818)
# reported_conditions: CellTiter-Glo, 60 h, at 10 µM
The whole screen tested about 140,000 compounds, of which about 2,100 (1.5%) were called active.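 How the source made its calls: active means viability at or under a set limit, the compound median less 4 SD (cut at about 6% in these data); inactive means the rest.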 The list comes from a sample in which actives are over-represented; it also holds close analogues and randomly drawn compounds.
Outcome codes: True (active), False (inactive)

INSERT INTO assay_data (compound, category_label) VALUES
  ('COc1cccc(/C=N/NC(=O)c2cccc([N+](=O)[O-])c2)c1OS(=O)(=O)c1ccc(C)cc1', 'False'),
  ('NS(=O)(=O)c1ccc(N=Cc2ccc(Br)s2)cc1', 'False'),
  ('CCC(C)(NC(=O)c1ccccn1)C(=O)NC1CCCCC1 (stereo unspecified)', 'False'),
  ('N=c1n(CCc2ccccc2)c2ccccc2n1Cc1ccccc1F', 'True'),
  ('CCOC(=O)NN1C(=O)c2ccccc2NC1c1ccccc1O (stereo unspecified)', 'False'),
  ('O=C(c1cccc(C(=O)N2CCN(c3ccc(F)cc3)CC2)c1)N1CCN(c2ccc(F)cc2)CC1', 'False');
